system: PIK3C2B; conditions: concentration: 1 μM, replicates: in singlicate; n = 1;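 note: KINOMEscan kinase panel screen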
MEASUREMENT LABEL: %Inh (%)

[
  {
    "COMPOUND": "CC(C)(C)c1ccc(C(=O)Nc2cn3cc(Cl)ccc3n2)cc1",
    "TESTED SYSTEM": "PIK3C2B",
    "ENDPOINT RESULT": 0
  },
  {
    "COMPOUND": "Cc1ccc(NC(=O)Nc2cc(C(C)(C)C)nn2-c2ccccc2)cc1 [GSK1014915]",
    "TESTED SYSTEM": "PIK3C2B",
    "ENDPOINT RESULT": 0
  },
  {
    "COMPOUND": "CN1C(=O)C(Nc2ccc(Cl)c(C(=O)O)c2)=C(c2ccc(Cl)cc2)C1=O [SB-404290]",
    "TESTED SYSTEM": "PIK3C2B",
    "ENDPOINT RESULT": 34
  },
  {
    "COMPOUND": "COc1ccc2nc(-c3cccc(C)n3)nc(Nc3ccncc3)c2c1 [GSK204919]",
    "TESTED SYSTEM": "PIK3C2B",
    "ENDPOINT RESULT": 3
  },
  {
    "COMPOUND": "CCn1c(-c2cccnc2O)nc2cnccc21 [SB-736715]",
    "TESTED SYSTEM": "PIK3C2B",
    "ENDPOINT RESULT": 0
  },
  {
    "COMPOUND": "Cc1ccc(NC(=O)Nc2cccc(Cl)c2)cc1-c1ccc(C(=O)Nc2ccncc2)cc1 [GSK1398468]",
    "TESTED SYSTEM": "PIK3C2B",
    "ENDPOINT RESULT": 0
  },
  {
    "COMPOUND": "COc1ccc(CNC(=O)NC2CCN(c3ccnc(Nc4cc(OC)c(OC)c(OC)c4)n3)C2)cc1 (stereo not shown) [GSK1379748]",
    "TESTED SYSTEM": "PIK3C2B",
    "ENDPOINT RESULT": 0
  },
  {
    "COMPOUND": "Cl.O=C(Nc1cccc(-c2nn3ncccc3c2-c2ccnc(Nc3cccnc3)n2)c1)c1c(F)cccc1F [GSK312879]",
    "TESTED SYSTEM": "PIK3C2B",
    "ENDPOINT RESULT": 0
  },
  {
    "COMPOUND": "CS(=O)(=O)c1ccc(-c2nc3n(c2-c2ccncc2)CCC3)cc1 [SKF-105942]",
    "TESTED SYSTEM": "PIK3C2B",
    "ENDPOINT RESULT": 0
  },
  {
    "COMPOUND": "COC(=O)c1c(-c2ccccc2)c2cc(OC)ccc2c(=O)n1Cc1ccccc1",
    "TESTED SYSTEM": "PIK3C2B",
    "ENDPOINT RESULT": 0
  },
  {
    "COMPOUND": "COc1ccc(Nc2nccc(-c3cccc(NC(=O)c4cc5cc(F)ccc5[nH]4)c3)n2)cc1 [GSK1229782]",
    "TESTED SYSTEM": "PIK3C2B",
    "ENDPOINT RESULT": 0
  },
  {
    "COMPOUND": "Cl.c1ccc(-c2n[nH]cc2-c2ccnc(-c3ccc(CN4CCOCC4)cc3)c2)nc1 [GW776245]",
    "TESTED SYSTEM": "PIK3C2B",
    "ENDPOINT RESULT": 16
  },
  {
    "COMPOUND": "Cc1cc(N2Cc3ccccc3C2)nc(Nc2ccc(S(=O)(=O)N3CCOCC3)cc2)n1.Cl [GSK1669917]",
    "TESTED SYSTEM": "PIK3C2B",
    "ENDPOINT RESULT": 0
  },
  {
    "COMPOUND": "Fc1cc(Cl)ccc1Nc1ccnc2cc(I)ccc12 [GW551191]",
    "TESTED SYSTEM": "PIK3C2B",
    "ENDPOINT RESULT": 0
  },
  {
    "COMPOUND": "COc1ccc(C2=C(Nc3cccc(C(=O)O)c3)C(=O)NC2=O)cc1 [SB-390765]",
    "TESTED SYSTEM": "PIK3C2B",
    "ENDPOINT RESULT": 23
  },
  {
    "COMPOUND": "COc1cc(Nc2nccc(N3CCC(NC(=O)Nc4cc(C)ccc4C)C3)n2)cc(OC)c1OC (stereo not shown) [GSK1379762]",
    "TESTED SYSTEM": "PIK3C2B",
    "ENDPOINT RESULT": 0
  },
  {
    "COMPOUND": "O=C1NC(=O)C(N2CCc3ccccc32)=C1c1ccccc1Cl [SB-373598]",
    "TESTED SYSTEM": "PIK3C2B",
    "ENDPOINT RESULT": 1
  },
  {
    "COMPOUND": "Cc1nnc(-c2ccc3occ(-c4ccc(S(C)=O)cc4)c3c2)[nH]1 (stereo not shown)",
    "TESTED SYSTEM": "PIK3C2B",
    "ENDPOINT RESULT": 3
  },
  {
    "COMPOUND": "Fc1cccc(COc2nnc(-c3ccc4c(c3)CCO4)o2)c1",
    "TESTED SYSTEM": "PIK3C2B",
    "ENDPOINT RESULT": 0
  },
  {
    "COMPOUND": "Cc1csc(-c2nc(Nc3ccncc3)c3ccccc3n2)n1 [GW869640]",
    "TESTED SYSTEM": "PIK3C2B",
    "ENDPOINT RESULT": 37
  },
  {
    "COMPOUND": "Cn1cncc1-c1ccc2ncnc(Nc3ccc(OCc4ccccc4)cc3)c2c1 [GW320571]",
    "TESTED SYSTEM": "PIK3C2B",
    "ENDPOINT RESULT": 61
  },
  {
    "COMPOUND": "Cc1ccc(C(=O)Nc2ccc(Nc3ccnc4cc(-c5ccccn5)ccc34)cc2O)cc1.Cl [GW440146]",
    "TESTED SYSTEM": "PIK3C2B",
    "ENDPOINT RESULT": 0
  },
  {
    "COMPOUND": "O=C(Nc1n[nH]c2nc(-c3nccs3)c(Br)cc12)C1CCCC1 [SB-742609]",
    "TESTED SYSTEM": "PIK3C2B",
    "ENDPOINT RESULT": 0
  },
  {
    "COMPOUND": "Cn1ccc2ncnc(Oc3cccc(C(=O)Nc4ccccc4)c3)c21",
    "TESTED SYSTEM": "PIK3C2B",
    "ENDPOINT RESULT": 0
  },
  {
    "COMPOUND": "Cc1c(O)cccc1Nc1ccnc2ccc(C(F)(F)F)cc12.Cl [GW466413]",
    "TESTED SYSTEM": "PIK3C2B",
    "ENDPOINT RESULT": 18
  },
  {
    "COMPOUND": "Cl.NC(=O)c1cccc(Nc2nccc(Nc3ccc(Oc4cccc(Cl)c4)c(Cl)c3)n2)c1 [GW659008]",
    "TESTED SYSTEM": "PIK3C2B",
    "ENDPOINT RESULT": 0
  },
  {
    "COMPOUND": "COc1cccc(NC(=O)NC2CCN(c3ccnc(Nc4ccc(F)cc4)n3)C2)c1 (stereo not shown) [GSK1379721]",
    "TESTED SYSTEM": "PIK3C2B",
    "ENDPOINT RESULT": 11
  },
  {
    "COMPOUND": "CC1=C(C(=O)Nc2cc3cn[nH]c3cc2F)C(c2ccc(C(F)(F)F)cc2)CC(=O)N1 (stereo not shown) [GSK429286]",
    "TESTED SYSTEM": "PIK3C2B",
    "ENDPOINT RESULT": 0
  },
  {
    "COMPOUND": "COc1ccccc1-c1ccc2c(NC(=O)C3CC3)n[nH]c2n1 [SB-711239]",
    "TESTED SYSTEM": "PIK3C2B",
    "ENDPOINT RESULT": 0
  },
  {
    "COMPOUND": "Cc1cccc(-c2nc(Nc3ccncc3)c3ccccc3n2)n1 [GW855857]",
    "TESTED SYSTEM": "PIK3C2B",
    "ENDPOINT RESULT": 0
  },
  {
    "COMPOUND": "O=C(Nc1n[nH]c2nc(-c3nccs3)c(Br)cc12)C1CC1 [SB-742251]",
    "TESTED SYSTEM": "PIK3C2B",
    "ENDPOINT RESULT": 0
  },
  {
    "COMPOUND": "Cn1ccc2ncnc(Oc3ccc(NC(=O)Nc4ccccc4)cc3)c21",
    "TESTED SYSTEM": "PIK3C2B",
    "ENDPOINT RESULT": 0
  },
  {
    "COMPOUND": "CC(C)(C)c1ccc(C(=O)Nc2cn3cc(-c4cccnc4)ccc3n2)cc1",
    "TESTED SYSTEM": "PIK3C2B",
    "ENDPOINT RESULT": 0
  },
  {
    "COMPOUND": "Cc1c(Cn2ccn3c(=O)cc(N4CCOCC4)nc23)cccc1C(F)(F)F [GSK2289044]",
    "TESTED SYSTEM": "PIK3C2B",
    "ENDPOINT RESULT": 20
  },
  {
    "COMPOUND": "C[C@@H]1CCCCN1c1cc(-c2ccc3c(N)n[nH]c3c2)nc(N)n1 [GSK2258759]",
    "TESTED SYSTEM": "PIK3C2B",
    "ENDPOINT RESULT": 0
  },
  {
    "COMPOUND": "Cc1ccc(-c2cc(-c3c[nH]nc3-c3ccccn3)ccn2)cc1 [GW684088]",
    "TESTED SYSTEM": "PIK3C2B",
    "ENDPOINT RESULT": 0
  },
  {
    "COMPOUND": "Nc1ncnc2[nH]c(-c3ccccc3)nc12 [AH5015]",
    "TESTED SYSTEM": "PIK3C2B",
    "ENDPOINT RESULT": 0
  }
]
